# EXPERIMENT_SUMMARY: Solubility testing of solid dispersions in media with different pH values (shaker, 24 hours)
# Format: physicochemical
# EXPERIMENTAL_CONDITIONS: simulated gastric fluid, thermodynamic from solid; 0.1mol/L HCl, 4h, sample Supersaturated
ASSAY_READOUT: solubility at 4 h (µg/mL)
Express the result in µg/mL but write the number alone.

Asked: Return solubility at 4 h (reported value) for this compound: C/C=C/c1cc(Nc2cc(N3CCN(C)CC3)nc(Oc3cc(F)c4[nH]c(C)cc4c3F)n2)n[nH]1 [API]
Given back: 50

---

# EXPERIMENT_SUMMARY: Solubility testing of solid dispersions in media with different pH values (shaker, 24 hours)
# Format: physicochemical
# EXPERIMENTAL_CONDITIONS: simulated gastric fluid, thermodynamic from solid; 0.1mol/L HCl, 24h, sample Supersaturated
ASSAY_READOUT: solubility at 24 h (µg/mL)
Hi! Could you send only the number? It should be in µg/mL, unit omitted.

Asked: Tell me solubility at 24 h reported for C/C=C/c1cc(Nc2cc(N3CCN(C)CC3)nc(Oc3cc(F)c4[nH]c(C)cc4c3F)n2)n[nH]1 [API]
Given back: 50

---

# EXPERIMENT_SUMMARY: Solubility of API in solvent combinations (visual dissolution)
# Format: physicochemical
# EXPERIMENTAL_CONDITIONS: organic solvent combinations of Table 2, organic solvent or mixture, thermodynamic from solid; solvent combinations of Table 2 (acetone/methanol, acetone/ethanol, with water or dichloromethane); read-out: solubility of API in the solvent combinations listed in Table 2
# Protocol: The solvent compositions capable of simultaneously dissolving the compound of the present invention and the carrier materials are shown in Table 2. The detection method for the solubility of API in different solvent combinations is as follows: Weigh 20 mg of the compound of the present invention and add it to 4 mL of different solvents or solvent combinations, respectively. Gently shake and observe the dissolution phenomenon. […]
ASSAY_READOUT: Solubility

Asked: Note Solubility for the compound shown: C/C=C/c1cc(Nc2cc(N3CCN(C)CC3)nc(Oc3cc(F)c4[nH]c(C)cc4c3F)n2)n[nH]1
Given back: > 5000 µg/mL

---

# EXPERIMENT_SUMMARY: Dog PK experiment for tablets
# Type: in vivo
# EXPERIMENTAL_CONDITIONS: plasma, beagle dogs (male, fasted), oral, dose 5 mg/kg
# Procedure: Example 59 and Example 60 were orally administered to beagle dogs (male, fasted, 3 dogs per group) at a dose of about 5 mg/kg. Example 65 was orally administered to beagle dogs (half male and half female, fasted, 8 dogs) at a dose of 50 mg/animal (about 5 mg/kg). […] The concentrations of the test substance in the plasma samples were analyzed using an LC-MS/MS method. […]
ASSAY_READOUT: AUC (ng·h/mL)
Supply the numeric figure in ng·h/mL, leaving out any unit text.

Asked: For the compound C/C=C/c1cc(Nc2cc(N3CCN(C)CC3)nc(Oc3cc(F)c4[nH]c(C)cc4c3F)n2)n[nH]1 [API] , give its measured AUC value.
Given back: 59

Every entry's value here was drawn from patent EP4755375A1.
